# Test system: HeLa
# Experiment description: Primary qHTS to identify gynecologic anti-cancer compounds using libraries of approved drugs and bioactive compounds (AID 1345084); further: on the % scale 0 is the no-effect control and ±100 the full control effect; nearly all actives have a fitted effect of over 55% in size
# Assay context: Gynecologic cancer cell panel viability, ATPlite luminescence, 48 h; series mostly up to 57.5 µM
Results filed as inconclusive are left out. Calls of active or inactive are those of the source. The call rests on the fitted dose curve; in most records, active means well fitted cell-killing curve with a large enough effect; inconclusive means small, poorly fitted or top-dose-only effect, or effect the other way; inactive means flat fitted curve, though single readings scatter.
Recorded endpoint: activity change, negative = cytotoxicity

| Compound | Test system | Recorded endpoint | Reported value |
| --- | --- | --- | --- |
| C[C@@H]1O[C@@H](O[C@@H]2[C@@H](O[C@@H]3O[C@@H](C)[C@H](O[C@@H]4OC[C@H](O)[C@H](O[C@@H]5OC[C@@H](O)[C@H](O)[C@H]5O)[C@H]4O)[C@@H](O[C@@H]4OC[C@](O)(CO)[C@H]4O)[C@H]3O)[C@H](OC(=O)[C@]34CCC(C)(C)C[C@H]3C3=CCC5[C@@]6(C)C[C@H](O)[C@H](O[C@@H]7O[C@H](CO[C@@H]8OC[C@H](O)[C@H](O)[C@H]8O)[C@@H](O)[C@H](O)[C@H]7O)C(C)(C)C6CC[C@@]5(C)[C@]3(C)C[C@H]4O)OC[C@H]2O)[C@H](O)[C@H](O)[C@H]1O (some centres not stated) | HeLa | activity change, negative = cytotoxicity | 4.56% [at 6.55 µM] (inactive) |

Would you kindly look at the next entry?
Complete the entry with activity change, negative = cytotoxicity for C=C(C)C1CCC2(C(=O)O[C@@H]3O[C@H](CO[C@@H]4O[C@H](CO)[C@@H](O)[C@H](O)[C@H]4O)[C@@H](O)[C@H](O[C@@H]4O[C@@H](C)[C@H](O)[C@@H](O)[C@H]4O)[C@H]3O)CCC3(C(=O)O)C(CCC4C5(C)CCC(O)C(C)(C)C5CCC43C)C12 (some centres not stated) -0.105% [at 11.6 µM] (inactive)
